Values from patent US9499552B2

- Tested on: KB human oral epithelium carcinoma cell line
- ASSAY NAME: MTT cytotoxic activity, KB
- Assay type: cell-based
- PARTICULARS: 72 h, read-out: IC50 cytotoxic activity in vitro
OBSERVABLE: IC50 (µM)
Answer with a number only, understood to be in µM.

Query string: Return value of IC50 for input CCOC(=O)N1CCC(C)(c2cc(O)n3nc(C)c(-c4ccc(F)cc4)c3n2)CC1 , no commentary.
Result string: 9.47

###

- System: Lncap human prostate cancer cell line
- ASSAY NAME: MTT cytotoxic activity, Lncap
- Type: cell-based
- PARTICULARS: 72 h, read-out: IC50 cytotoxic activity in vitro
OBSERVABLE: IC50 (µM)
Answer with a number only, understood to be in µM.

Query string: Return value of IC50 for input CCOC(=O)N1CCC(C)(c2cc(O)n3nc(C)c(-c4ccc(F)cc4)c3n2)CC1 , no commentary.
Result string: 4.33

###

- TEST TARGET: TRPC6 channel (Mus musculus)
- Construct: expressed in transfected cells; host or cells: HEK293
- ASSAY NAME: Whole-cell patch clamp assay, TRPC6 activation
- Format: cell-based
- PARTICULARS: HEK293 cells, concentration response 0.04-10 μM, n=5-7
OBSERVABLE: pEC50
The meaning of pEC50 here: minus log10 of the concentration in molar units.

Query string: Return value of pEC50 for input CCOC(=O)N1CCC(c2cc(O)n3nc(C)c(-c4ccc(F)cc4)c3n2)CC1 , no commentary.
Result string: 5.60

###

- System: RM-1 mouse prostate cancer cell line
- ASSAY NAME: MTT cytotoxic activity, RM-1
- Format: cell-based
- PARTICULARS: RM-1, MTT, 72 h; read-out: IC50 cytotoxic activity in vitro
OBSERVABLE: pIC50
The meaning of pIC50 here: minus log10 of the concentration in molar units.

Query string: Return value of pIC50 for input CCOC(=O)N1CCC(C)(c2cc(O)n3nc(C)c(-c4ccc(F)cc4)c3n2)CC1 , no commentary.
Result string: 4.59

###

- System: MCF7 human breast cancer cell line
- ASSAY NAME: MTT cytotoxic activity, MCF7
- Format: cell-based
- PARTICULARS: 72 h, read-out: IC50 cytotoxic activity in vitro
OBSERVABLE: IC50 (µM)
Answer with a number only, understood to be in µM.

Query string: Return value of IC50 for input CCOC(=O)N1CCC(C)(c2cc(O)n3nc(C)c(-c4ccc(F)cc4)c3n2)CC1 [Compound M110] , no commentary.
Result string: 12.1

###

- TEST TARGET: TRPC6 channel (Mus musculus, UniProt Q61143)
- Construct: expressed in transfected cells; host or cells: HEK293
- Sequence (Q61143 whole entry): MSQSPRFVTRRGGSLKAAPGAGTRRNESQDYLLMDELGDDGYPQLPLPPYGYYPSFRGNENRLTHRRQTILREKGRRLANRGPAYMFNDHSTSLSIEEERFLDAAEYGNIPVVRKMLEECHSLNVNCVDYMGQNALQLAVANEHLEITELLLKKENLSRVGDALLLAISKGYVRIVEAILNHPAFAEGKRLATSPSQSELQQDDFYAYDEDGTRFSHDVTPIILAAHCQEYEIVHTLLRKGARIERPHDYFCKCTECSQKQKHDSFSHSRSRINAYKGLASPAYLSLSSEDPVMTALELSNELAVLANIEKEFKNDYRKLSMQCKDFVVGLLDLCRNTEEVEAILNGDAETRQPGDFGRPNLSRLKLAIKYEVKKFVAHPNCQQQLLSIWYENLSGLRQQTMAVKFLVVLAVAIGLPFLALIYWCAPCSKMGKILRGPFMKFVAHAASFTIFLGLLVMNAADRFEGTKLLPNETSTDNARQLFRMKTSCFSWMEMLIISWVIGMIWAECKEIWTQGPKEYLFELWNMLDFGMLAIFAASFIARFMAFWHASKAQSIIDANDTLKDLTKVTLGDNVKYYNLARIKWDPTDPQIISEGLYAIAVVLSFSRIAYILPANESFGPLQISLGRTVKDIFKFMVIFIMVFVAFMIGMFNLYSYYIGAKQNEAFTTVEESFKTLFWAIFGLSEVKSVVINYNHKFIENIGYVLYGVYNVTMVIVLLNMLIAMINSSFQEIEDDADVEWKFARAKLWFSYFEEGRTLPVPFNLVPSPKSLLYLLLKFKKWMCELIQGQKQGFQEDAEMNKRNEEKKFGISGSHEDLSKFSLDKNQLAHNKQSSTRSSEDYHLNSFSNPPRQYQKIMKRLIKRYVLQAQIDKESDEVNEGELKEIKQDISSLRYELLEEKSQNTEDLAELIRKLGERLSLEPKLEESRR
- ASSAY NAME: Whole-cell patch clamp assay, TRPC6 activation
- Assay type: cell-based
- PARTICULARS: HEK293 cells clamped at -100~+100 mV
OBSERVABLE: activation effect for TRPC6 channel (whole-cell patch clamp)

# MOLECULE, DATA VALUE
rows = [
    ("Cc1nn2c(O)cc(C3CCN(C(=O)OCc4ccccc4)CC3)nc2c1-c1ccc(Cl)cc1 [Compound M091]", "have activation effect"),
    ("CCOC(=O)N1CCC(c2cc(O)n3nc(C)c(-c4ccc(F)cc4)c3n2)CC1 [Compound M085]", "have activation effect"),
    ("CCOC(=O)N1CCC(c2cc(O)n3nc(C)c(-c4ccc(C(F)(F)F)cc4)c3n2)CC1 [Compound M092]", "have activation effect"),
    ("Cc1nn2c(O)cc(C3CCN(C(=O)OCc4ccccc4)CC3)nc2c1-c1ccc(F)cc1 [Compound M086]", "have activation effect"),
]

###

- System: Pc3 human prostate cancer cell line
- ASSAY NAME: MTT cytotoxic activity, Pc3
- Format: cell-based
- PARTICULARS: 72 h, read-out: IC50 cytotoxic activity in vitro
OBSERVABLE: pIC50
The meaning of pIC50 here: minus log10 of the concentration in molar units.

Query string: Return value of pIC50 for input CCOC(=O)N1CCC(C)(c2cc(O)n3nc(C)c(-c4ccc(F)cc4)c3n2)CC1 , no commentary.
Result string: 4.51

###

- Test system: Du145 human prostate cancer cell line
- ASSAY NAME: MTT cytotoxic activity, Du145
- Assay type: cell-based
- PARTICULARS: 72 h, read-out: IC50 cytotoxic activity in vitro
- Method: After the cells in logarithmic growth phase were digested with 0.25% trypsin-EDTA, a cell suspension at a certain concentration was prepared. Depending on cell growth rate, they were inoculated in 96-well plates at 1000-2000 cells/well. To each well 100 μL of the cell suspension was added. […] After mixing homogeneously by a microoscillator, optical density (OD) was measured at 450 nm of reference wavelength, and at 570 nm of detection wavelength by a Microplate reader. […]
OBSERVABLE: IC50

Query string: Return value of IC50 for input CCOC(=O)N1CCC(C)(c2cc(O)n3nc(C)c(-c4ccc(F)cc4)c3n2)CC1 , no commentary.
Result string: > 100 µM
